# Tested on: 422866-222-R5-J1-PDC complex spheroids viability
# Experiment summary: Anticancer human tumor 422866-222-R5-J1-PDC patient-derived pancreatic adenocarcinoma cell line growth inhibition [RAS]
# Experimental context: second compound 1 µM; first compound 0.0316 µM; stronger effect = lower value
Reported metric: viability, T/C (%)
Unit % implied. Number only.

Solved entries (count: 2):
Incoming: Give recorded viability, T/C. Cc1nc(N2CCC3(CC2)COC(C)C3N)c(CO)nc1Sc1ccnc(N)c1Cl (stereo not drawn) + C=CC(=O)N1CCN(c2nc(OCC3CCCN3C)nc3c(F)c(-c4nc(N)cc(C)c4C(F)(F)F)c(Cl)cc23)C(C)C1
Outgoing: 21.5

Incoming: Give recorded viability, T/C. Nc1ccn(C2OC(CO)C(O)C2(F)F)c(=O)n1 (stereo not drawn) + C=CC(=O)N1CCN(c2nc(OCC3CCCN3C)nc3c(F)c(-c4nc(N)cc(C)c4C(F)(F)F)c(Cl)cc23)C(C)C1
Outgoing: 19

Field: next compound
Incoming: Give recorded viability, T/C. O=C(c1ccc(F)c(F)c1Nc1ccc(I)cc1F)N1CC(O)([C@@H]2CCCCN2)C1 + C#Cc1c(F)ccc2cc(O)cc(-c3ncc4c(N5CC6CCC(C5)N6)nc(OCC56CCCN5CC(F)C6)nc4c3F)c12
Outgoing: 31.3

----------
# reported IC50; entries follow
# System: 422866-222-R5-J1-PDC complex spheroids viability
# Experiment summary: Anticancer human tumor 422866-222-R5-J1-PDC cell line growth inhibition [RAS];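 also: spheroids exposed to compounds for 7 days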
# Experimental context: curve of first compound; second compound 0.003 µM

Incoming: Give recorded IC50. CC(C)n1nc(-c2ccc3oc(N)nc3c2)c2c(N)ncnc21 + CCn1c(-c2cc(N3CCN(C)CC3)cnc2C(C)OC)c2c3cc(ccc31)-c1csc(n1)CC(NC(=O)C1CC1C)C(=O)N1CCCC(N1)C(=O)OCC(C)(C)C2
Outgoing: < 0.000316 µM

Incoming: Give recorded IC50. CC1(O)CCCC1n1c(=O)c(C(F)F)cc2cnc(NC3CCN(S(C)(=O)=O)CC3)nc21 (stereo not drawn) + CCn1c(-c2cccnc2C(C)OC)c2c3cc(ccc31)N1CCOC(CC(NC(=O)C(C(C)C)N(C)C(=O)C3(F)CCN(C(=O)C#CC(C)(C)N(C)C)CC3)C(=O)N3CCCC(N3)C(=O)OCC(C)(C)C2)C1
Outgoing: < 0.0316 µM

***
Incoming: Give recorded IC50. NC1c2ccccc2OC12CCN(c1cnc3c(N4CCCc5ncccc54)n[nH]c3n1)CC2 (stereo not drawn) + CCn1c(-c2cc(N3CCN(C)CC3)cnc2C(C)OC)c2c3cc(ccc31)-c1csc(n1)CC(NC(=O)C1CC1C)C(=O)N1CCCC(N1)C(=O)OCC(C)(C)C2
Outgoing: < 0.0316 µM

----------
# reported viability, T/C; entries follow
# System: 422866-222-R5-J1-PDC complex spheroids viability
# Experiment summary: Anticancer human tumor 422866-222-R5-J1-PDC cell line growth inhibition [RAS];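 also: spheroids exposed to compounds for 7 days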;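 as to viability, T/C: 100% = DMSO vehicle control viability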
# Experimental context: second compound 0.03 µM; first compound 0.01 µM; stronger effect = lower value
Unit % implied. Number only.

Solved entries (count: 3):
Incoming: Give recorded viability, T/C. C=CC(=O)N1CCN(c2nc(OCC3CCCN3C)nc3c(F)c(-c4nc(N)cc(C)c4C(F)(F)F)c(Cl)cc23)C(C)C1 (centres undefined) + CCn1c(-c2cccnc2C(C)OC)c2c3cc(ccc31)N1CCOC(CC(NC(=O)C(C(C)C)N(C)C(=O)C3(F)CCN(C(=O)C#CC(C)(C)N(C)C)CC3)C(=O)N3CCCC(N3)C(=O)OCC(C)(C)C2)C1
Outgoing: 23.9

Incoming: Give recorded viability, T/C. O=C(c1ccc(F)c(F)c1Nc1ccc(I)cc1F)N1CC(O)([C@@H]2CCCCN2)C1 + CCn1c(-c2cc(N3CCN(C)CC3)cnc2C(C)OC)c2c3cc(ccc31)-c1csc(n1)CC(NC(=O)C1CC1C)C(=O)N1CCCC(N1)C(=O)OCC(C)(C)C2
Outgoing: 13.4

Incoming: Give recorded viability, T/C. Nc1ccn(C2OC(CO)C(O)C2(F)F)c(=O)n1 (centres undefined) + CCn1c(-c2cccnc2C(C)OC)c2c3cc(ccc31)N1CCOC(CC(NC(=O)C(C(C)C)N(C)C(=O)C3(F)CCN(C(=O)C#CC(C)(C)N(C)C)CC3)C(=O)N3CCCC(N3)C(=O)OCC(C)(C)C2)C1
Outgoing: 22.6

Field: next compound
Incoming: Give recorded viability, T/C. CC(C)n1nc(-c2ccc3oc(N)nc3c2)c2c(N)ncnc21 + CCn1c(-c2cc(N3CCN(C)CC3)cnc2C(C)OC)c2c3cc(ccc31)-c1csc(n1)CC(NC(=O)C1CC1C)C(=O)N1CCCC(N1)C(=O)OCC(C)(C)C2
Outgoing: 15.7

Entry source: PubChem BioAssay AID2060901
